This listing pairs binders with measured % Inhibition.
# tested.system: bombesin receptor of rat brain membranes (rat)
# test: 125I-Bombesin competition, rat brain membranes
Square brackets hold non-standard residues; d marks the D form. Ends that are not written are not given here.
Answer with a number only, understood to be in %.

Look over these answered cases.
>>> result_number("[dF]QWAVGHCLL-NH2 (bridge (positions not given here) via ReOCl3(PPh3)2; also: oxorhenium(V) N3S1 tetradentate complex at Cys 8) [metallopeptide 8-3]")
49
>>> result_number("[dF]QWVCHLL-NH2 (bridge (positions not given here) via ReOCl3(PPh3)2; also: oxorhenium(V) N3S1 tetradentate complex at Cys 5) [metallopeptide 12-4]")
5
>>> result_number("[dF]QCAVGHLL-NH2 (not fully specified (bridges); printed as D-Phe-Gln-Cys-Ala-Val-Gly-His-Leu-Leu-NH2; also: Re(V)=O complexed at Cys (N3S1 chelate)) [metallopeptide 9-7]")
19

Switching to the query record.
Query: Dear colleague, please send me the reported % Inhibition for [dF]QWAVCHLL-NH2 (not fully specified (bridges); printed as D-Phe-Gln-Trp-Ala-Val-Cys-His-Leu-Leu-NH2; also: Re(V)=O complexed at Cys (N3S1 chelate)) [metallopeptide 9-4] when you can.
Response: 75
